# System: MRC-5SV2 human embryonic lung fibroblasts
# MEASUREMENT_NOTES: Cytotoxicity on MRC-5 fibroblasts (resazurin)
# Format: cell-based
# PARTICULARS: source data; read-out: MRC-5 EC50, single measurements
MEASUREMENT_KIND: EC50 (µM)
// note: answer is a bare numeric in µM

Please tell me: EC50 of `Nc1ncnc2c1c(Br)cn2[C@H]1C[C@H](O)[C@@H](CO)O1` , system MRC-5SV2 human embryonic lung fibroblasts?
5.37

====

# Test system: T. b. brucei Lister 427WT
# MEASUREMENT_NOTES: Drug susceptibility test (resazurin), Lister 427WT
# Assay type: cell-based, Trypanosoma brucei brucei
# PARTICULARS: Trypanosoma brucei, read-out: Lister 427 EC50, mean and SEM, n = 3
MEASUREMENT_KIND: pEC50
Notebook: values listed as pEC50 are -log10 of the concentration (mol/L).

1. CC[n+]1c(-c2ccccc2)c2cc(N/N=N/c3cccc(C(=N)N)c3)ccc2c2ccc(N)cc21 [Isometamidium, reference compound] = 6.19

Kindly consider the entry below.
Item `Nc1ncnc2c1c(Br)cn2[C@@H]1O[C@H](CO)[C@@H](O)[C@H]1O` has what recorded pEC50?
6.49

====

# Test system: T. brucei Squib 427
# MEASUREMENT_NOTES: microbe, parasite or virus in culture
# Format: cell-based, Trypanosoma brucei brucei
# PARTICULARS: source data; read-out: T. brucei brucei EC50, single measurements
MEASUREMENT_KIND: pEC50
Here pEC50 is given on a logarithmic scale as minus log10 of the concentration in mol/L.

1) Nc1ncnc2c1c(Br)cn2[C@H]1C[C@H](O)[C@@H](CO)O1 = 6.27

We now examine a further compound.
Quick one: pEC50 for `Nc1ncnc2c1ccn2[C@H]1C[C@H](O)[C@@H](CO)O1` ?
4.33

====

# TEST_SYSTEM: Lister 427WT T. b. brucei
# MEASUREMENT_NOTES: Adenosine deaminase susceptibility (drug sensitivity with/without 2 µM deoxycoformycin)
# Assay type: cell-based, Trypanosoma brucei brucei
# PARTICULARS: DCF +; read-out: EC50 Reported value
MEASUREMENT_KIND: pEC50
Please report pEC50 as the negative decimal logarithm of the molar concentration, giving only the number.

Which value of pEC50 has been reported for Nc1ncnc2c1c(Br)cn2[C@@H]1O[C@H](CO)C[C@H]1O [FH7429-up (10)] in the records?
8.72

====

# Test system: T. brucei BSF s427 wildtype cells
# MEASUREMENT_NOTES: Growth assays of T. brucei (trypanocidal/trypanostatic effect)
# Format: cell-based, Trypanosoma brucei
# PARTICULARS: 5xEC50, 48 h, experiment 1
# Experimental: Growth assays of T. brucei To test the effect of the novel adenosine analogues on the growth of T. brucei BSF, s427 wildtype cells were seeded at 1×10^5 cells mL-1 in 5 mL of HMI-9 medium with 10% FBS and treated with compounds […] cells were also incubated in drug-free medium under the same conditions. […] Cells were manually counted in Neubauer chambers at 0, 2, 4, 6, 8, 12, 24, 36 and 48 h after addition of […]
MEASUREMENT_KIND: Counts

Look over these answered cases.
1) Nc1ncnc2c1c(Br)cn2[C@@H]1O[C@H](CO)[C@@H](O)[C@H]1O [Compound 8, 7-bromotubercidin] = 45
2) Nc1ncnc2c1c(Br)cn2[C@@H]1O[C@H](CO)C[C@H]1O [Compound 10, 3’-deoxy-7-Br-tubercidin] = 0
3) Nc1ncnc2c1ncn2[C@@H]1O[C@H](CO)C[C@H]1O [Compound 3, cordycepin, reference compound] = 6

# evaluate next
Notebook entry, T. brucei BSF s427 wildtype cells assay: Counts of Nc1ncnc2c1ccn2[C@@H]1O[C@H](CO)C[C@H]1O [Compound 9, 3’-deoxytubercidin] = ?
0

====

# MEASUREMENT_NOTES: Cytotoxicity on MRC-5 fibroblasts (resazurin)
# Type: cell-based, human
# PARTICULARS: human, MRC-5 EC50, Average
MEASUREMENT_KIND: EC50 at 3 day (µM)
Unit µM implied. Number only.

Value lookup for EC50 at 3 day; key = `Nc1ncnc2c1c(Br)cn2[C@@H]1O[C@H](CO)[C@@H](O)[C@H]1O`
12.8

====

# Tested on: RNAi clones targeting FLA1BP, EndoG, RHS5, BCKDHA in T. brucei NY-SM cells
# MEASUREMENT_NOTES: Susceptibility of RNAi clones targeting FLA1BP, EndoG, RHS5, BCKDHA
# Assay type: cell-based, Trypanosoma brucei brucei
# PARTICULARS: BCKDHA RNAi clone B -
# Protocol: Susceptibility assays with NY-SM[51], BS221[48] and TbAT1-KO[48] (derived from BS221) cells were performed using 10 concentrations of a 4-fold compound dilution series starting at 64 µM. Parasites were seeded at 4 × 10^3 parasites per well and exposed to drug compound for 72 h, after which resazurin (final concentration of 10 µg mL^−1) was added to the plates. Fluorescence intensities were determined after 6 h. The RNAi library[54] was induced for 68 h by the addition of 1 µg mL^−1 of tetracycline. […]
MEASUREMENT_KIND: IC50 (nM)
Give your result in nM as a bare value.

Please report the recorded IC50 for `Nc1ncnc2c1ccn2[C@@H]1O[C@H](CO)C[C@H]1O` .
7.47

====

# Tested on: T. brucei NY-SM cells
# MEASUREMENT_NOTES: Susceptibility assay, NY-SM cells
# Assay type: cell-based, Trypanosoma brucei brucei
# PARTICULARS: Trypanosoma brucei, NYsm parental cells; single replicates; read-out: IC50
MEASUREMENT_KIND: pIC50
Units for pIC50: none; it is -log10 of a concentration expressed in mol/L.

// map `Nc1ncnc2c1ccn2[C@@H]1O[C@H](CO)C[C@H]1O` to recorded pIC50 (system: T. brucei NY-SM cells)
8.10

====

# System: TbAT1-KO: T. brucei cell line lacking the TbAT1(P2) transporter gene
# MEASUREMENT_NOTES: microbe, parasite or virus in culture
# Assay type: cell-based, Trypanosoma brucei brucei
# PARTICULARS: resistance factor: ratio of EC50 of resistant and Lister 427WT
Marks after values point to notes of the source that are not given here.
MEASUREMENT_KIND: RF (TbAT1-KO)

Completed entries (count: 3):
1) Nc1ncnc2c1ccn2[C@@H]1O[C@H](CO)[C@@H](O)[C@H]1O [Compound 6, Tubercidin, reference compound] = 17.2**
2) Nc1ncnc2c1c(Br)cn2[C@@H]1O[C@H](CO)[C@@H](O)[C@H]1O [Compound 8, 7-bromotubercidin] = 2.62***
3) Nc1ncnc2c1c(Br)cn2[C@H]1C[C@H](O)[C@@H](CO)O1 [Compound 12, 7-Br-2′-deoxy-TUB] = 2.37*

// next item, RF (TbAT1-KO) requested
Which RF (TbAT1-KO) is reported for this molecule? Nc1ncnc2c1c(Br)cn2[C@@H]1O[C@H](CO)C[C@H]1O [Compound 10, 3’-deoxy-7-Br-tubercidin]
1.2

====

# Tested on: T. b. brucei Lister 427WT
# MEASUREMENT_NOTES: Drug susceptibility test (resazurin), Lister 427WT
# Assay type: cell-based, Trypanosoma brucei brucei
# PARTICULARS: Trypanosoma brucei, source data; read-out: s427 EC50, single determinations
The entries below are paired with their reported EC50.
Write it as a number; the unit nM goes unstated.

Take a look at these entries with their results.
1) Nc1ncnc2c1ccn2[C@@H]1O[C@H](CO)C[C@H]1O = 32
2) Nc1ncnc2c1ccn2[C@H]1C[C@H](O)[C@@H](CO)O1 = 82600
3) Nc1ncnc2c1c(Br)cn2[C@H]1C[C@H](O)[C@@H](CO)O1 = 376

Turning now to a further compound:
May I ask what EC50 has been recorded for `Nc1ncnc2c1c(Br)cn2[C@@H]1O[C@H](CO)[C@@H](O)[C@H]1O` ?
364

====

# Test system: RNAi clones targeting FLA1BP, EndoG, RHS5, BCKDHA in T. brucei NY-SM cells
# MEASUREMENT_NOTES: Susceptibility of RNAi clones targeting FLA1BP, EndoG, RHS5, BCKDHA
# Assay type: cell-based, Trypanosoma brucei brucei
# PARTICULARS: RHS5 RNAi clone A -
MEASUREMENT_KIND: IC50 (nM)
Output spec: scalar in nM, unitless text.

Would you mind telling me what IC50 value was observed for `Nc1ncnc2c1ccn2[C@@H]1O[C@H](CO)C[C@H]1O` ?
7.93

====

# Test system: RNAi clones targeting adenosine kinase (ADKIN; Tb927.6.2300) in T. brucei NY-SM cells
# MEASUREMENT_NOTES: Susceptibility of ADKIN RNAi clones (tetracycline-induced / non-induced)
# Type: cell-based, Trypanosoma brucei brucei
# PARTICULARS: Trypanosoma brucei, read-out: EC50 upon ADKIN knockdown
MEASUREMENT_KIND: EC50 (nM)
Express the result in nM but write the number alone.

What value of EC50 has been recorded for this entry: `Nc1ncnc2c1ccn2[C@@H]1O[C@H](CO)C[C@H]1O`
100

These data points were gathered from paper PMC6895180.
